biological target: T1, Recombinant human CD4 (R&D Systems, Cat. 10327-CD) (human, UniProt P01730 26-390, limits assumed); test: BLI Octet, mAb on anti-mouse Fc sensor, CD4 100/50/25 nM, 1:1 global fit;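 further: antibodies loaded at 10 µg/mL, an unrelated mouse-derived antibody served as internal reference control, association and dissociation phases fitted after Savitzky-Golay smoothing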
T1 construct: Soluble analyte in the Octet assay
RECORDED ENDPOINT: Response
Could you respond with only the numeric value?

[
  {
    "BINDER": "75110_04G16A (antibody, V domains shown, Tested as antibody purified from AlivaMab Mouse hybridoma supernatant (captured by anti-mouse IgG Fc)) VH: QVQLQESGPGLVKPSQTLSLTCTVSGDSISSGYYYWSWIRQHPGKGLEWIGYISYSGSTYYNPSLKSRLTISVNTSKNQFSLKLSSLTAADTAVYYCARDRPSNFDAFDIWGQGTMVTVSS VL: EIVLTQSPGTLSLSPGERATLSCRASQSVGSTYLAWYQQKPGQAPRLLIYGAFSRATGIPDRFSGSGSGTDFTLTISRLEPEDFAVYYCQQYGSSPLTFGPGTKVDIK",
    "REPORTED MEASUREMENT": 0.23
  },
  {
    "BINDER": "75110_03C01A (antibody, V domains shown, Tested as antibody purified from AlivaMab Mouse hybridoma supernatant (captured by anti-mouse IgG Fc)) VH: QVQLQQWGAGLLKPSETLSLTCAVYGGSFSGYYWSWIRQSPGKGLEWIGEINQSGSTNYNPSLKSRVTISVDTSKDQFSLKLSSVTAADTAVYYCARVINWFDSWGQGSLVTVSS VL: DIQMTQSPSSVSASVGDRVTITCRASQGISSWLAWYQQKPGNAPKLLIYDASSFQSGVPSRFSGSGSGTDFTLTISSLQTEDFATYYCQQANSFPYTFGQGTKLEIK",
    "REPORTED MEASUREMENT": 0.23
  }
]

Now for another entry.
Entry under review: 75110_02E08A (antibody, V domains shown, Tested as antibody purified from AlivaMab Mouse hybridoma supernatant (captured by anti-mouse IgG Fc)) VH: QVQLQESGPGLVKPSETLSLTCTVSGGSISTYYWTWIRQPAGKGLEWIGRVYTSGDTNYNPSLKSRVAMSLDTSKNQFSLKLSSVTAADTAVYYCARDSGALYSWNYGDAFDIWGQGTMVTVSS VL: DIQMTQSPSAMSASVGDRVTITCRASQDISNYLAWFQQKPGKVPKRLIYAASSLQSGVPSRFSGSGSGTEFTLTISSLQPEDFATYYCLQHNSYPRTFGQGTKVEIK . Reported Response?
0.11
